System Under Test: Voltage-gated inwardly rectifying potassium channel KCNH2 (Homo sapiens)
Method Notes: Human Ether-a-go-go-Related Gene (hERG) channel small molecule antagonists: fluorescence cell-based qHTS assay (AID 1671200); also: nearly all actives have a fitted effect of over 50% in size
Applied Conditions: hERG-U2OS cells, FluxOR thallium flux fluorescence; series mostly up to 76.8 µM
Records with an inconclusive call do not appear. The source made the active and inactive calls. Calls follow the shape of the dose curve; as a rule, active = well fitted inhibition curve with a large enough effect in the repeat runs; inconclusive = weak or mixed curves; inactive = flat fitted curve, though single readings scatter.
Outcome codes: t (active), f (inactive)

compound=[Cl][Sc]([Cl])[Cl] class_label=f
compound=CN1CCN(C)CC1 class_label=f
compound=Cc1c(Cl)c(=O)oc2cc(O)ccc12 class_label=f
compound=c1ccc2c(c1)-c1ccc3ccc4cccc5cc-2c1c3c45 class_label=f
compound=CCc1c(C)cc(N)c(CC)c1N class_label=f
compound=C=Cc1ccc(O)c(OC)c1 class_label=f
compound=CCSCC class_label=f
compound=CN1CCN(CCCN2c3ccccc3Sc3ccc(C(F)(F)F)cc32)CC1 class_label=t
compound=CCCCCCCCc1ccc(Nc2ccc(CCCCCCCC)cc2)cc1 class_label=f
compound=C=COCCCC class_label=f
compound="CC1CCC(C(C)(C)O)CC1 (stereo unspecified)" class_label=f
compound=CC(C)=CCC[C@H](C)CC=O class_label=f
compound=CC(O)(c1ccc(Cl)cc1)c1ccc(Cl)cc1 class_label=t
compound="S=C1NC=NC2N=CNC12 (stereo unspecified)" class_label=f
compound=Cc1cccc(C)c1C class_label=f
compound=Cc1cc(Br)ccc1NC(=O)CCl class_label=f
compound=CC(C)c1ccc2sc3ccccc3c(=O)c2c1 class_label=f
compound=CCCCCCCCCCCCN1CCCC1=O class_label=f
compound=Nc1cccnc1N class_label=f
compound="CCCC(C)C=O (stereo unspecified)" class_label=f
compound="CCCCCCCCCCCCCCCCC(C(=O)O)C(O)(CC(=O)O)C(=O)O (stereo unspecified)" class_label=f
compound=CC1(C)[C@H](C(=O)OCc2cccc(Oc3ccccc3)c2)[C@@H]1C=C(Cl)Cl class_label=f
compound="CC(CC(C)(C)C)CC(C)(C)CC(C)(C)C (stereo unspecified)" class_label=f
compound=O=C(NCc1ncc(C(F)(F)F)cc1Cl)c1c(Cl)cccc1Cl class_label=f
compound=CC(C)(C)C1=CC(=O)C(C(C)(C)C)=CC1=O class_label=f
compound=NCc1ccco1 class_label=f
compound=C/C=C/C(=O)OCC(C)C class_label=f
compound=CN[C@H]1CC[C@@H](c2ccc(Cl)c(Cl)c2)c2ccc(S(N)(=O)=O)cc21 class_label=t
compound=CO[Si](OC)(c1ccccc1)c1ccccc1 class_label=f
compound="CC(C=O)c1ccccc1 (stereo unspecified)" class_label=f
compound=CCn1c2ccccc2c2ccccc21 class_label=f

---

Method Notes: qHTS RealTime-Glo MT Cell Viability Assay in HepG2 cells - 40 hour (AID 1224870); also: nearly all actives have a fitted effect of over 50% in size; also: potency is read from the fitted curve at half-maximal effect
Applied Conditions: RealTime-Glo luminescence; series mostly up to 76.8 µM
Results filed as inconclusive are left out. The source made the active and inactive calls. Calls come from the whole dose curve; as a rule, active = well fitted cell-killing curve with a large enough effect in the repeat runs; inconclusive = weak or mixed curves, or effect the other way; inactive = flat fitted curve, though single readings scatter.
Measured Quantity: Potency

smiles_notation=Cc1c[nH]c(=O)[nH]c1=O measured_quantity=Potency experimental_result=inactive
smiles_notation=O=[N+]([O-])c1ccc(O)c2ncccc12 measured_quantity=Potency experimental_result=inactive
smiles_notation=Clc1nc(C(Cl)(Cl)Cl)c(Cl)c(Cl)c1Cl measured_quantity=Potency experimental_result="54.9 µM (active)"
smiles_notation=Nc1ccc2c(S(=O)(=O)O)cccc2c1S(=O)(=O)O measured_quantity=Potency experimental_result=inactive
smiles_notation=Nc1ccc(F)c([N+](=O)[O-])c1 measured_quantity=Potency experimental_result=inactive
smiles_notation=N#Cc1nc(Cl)c(Cl)c(Cl)c1Cl measured_quantity=Potency experimental_result="17.4 µM (active)"
smiles_notation=c1ccc(-c2ccccc2-c2ccccc2)cc1 measured_quantity=Potency experimental_result=inactive
